# TGI per entry
Tested on: NCI-H522 lung
Assay: NCI tumour cell line growth inhibition, 48 h

- Cc1ccc(C)c(NC(=O)CC/C(=N\NC(=O)C(=O)NN)C(C)C(=O)c2ccc(O)cc2)c1 (stereo not given): > 100 µM
- O=C(/C=C/c1ccc(O)c([N+](=O)[O-])c1)CC(=O)/C=C/c1ccc(O)c([N+](=O)[O-])c1: > 100 µM

Which TGI value is on record for COC(=O)CCCCN=Cc1c(O)c(O)c(C(C)C)c2cc(C)c(-c3c(C)cc4c(C(C)C)c(O)c(O)c(C=NCCCCC(=O)OC)c4c3O)c(O)c12 ?
4.43 µM

Try this molecule too: COc1cc(O)c(/C=N/N=C(\N)NO)c(OC)c1
> 10 µM

Try this molecule too: O=NN(Cc1ccc(Cl)cc1)C(C(=O)O)c1ccccc1 (stereo not given)
> 100 µM

Try this molecule too: N#Cc1ccc(C#Cc2ccccc2C#CCCCCO)cc1
31.1 µM

Try this molecule too: CN(CCC#N)c1ccc(/C=C2\SC(=S)NC2=O)cc1
> 100 µM

Try this molecule too: Nc1ccn(C2O[C@H](CO)[C@@H](O)[C@@H]2O)c(=O)n1 (stereo not given in full)
> 100 µM

Try this molecule too: CN1C(=O)N(c2ccccc2)C2(CCN(CC3COc4ccccc4O3)CC2)C1=O (stereo not given)
> 100 µM

Try this molecule too: NCC1CCN(c2nc3ccccc3c3c2CCCC3)CC1
19.8 µM
